Values from patent US9187525B2

For each record, write down the corresponding EC50 group, cGMP in GTM-3 cells.
Target: T1, natriuretic peptide receptor-B (human)
T1 chain: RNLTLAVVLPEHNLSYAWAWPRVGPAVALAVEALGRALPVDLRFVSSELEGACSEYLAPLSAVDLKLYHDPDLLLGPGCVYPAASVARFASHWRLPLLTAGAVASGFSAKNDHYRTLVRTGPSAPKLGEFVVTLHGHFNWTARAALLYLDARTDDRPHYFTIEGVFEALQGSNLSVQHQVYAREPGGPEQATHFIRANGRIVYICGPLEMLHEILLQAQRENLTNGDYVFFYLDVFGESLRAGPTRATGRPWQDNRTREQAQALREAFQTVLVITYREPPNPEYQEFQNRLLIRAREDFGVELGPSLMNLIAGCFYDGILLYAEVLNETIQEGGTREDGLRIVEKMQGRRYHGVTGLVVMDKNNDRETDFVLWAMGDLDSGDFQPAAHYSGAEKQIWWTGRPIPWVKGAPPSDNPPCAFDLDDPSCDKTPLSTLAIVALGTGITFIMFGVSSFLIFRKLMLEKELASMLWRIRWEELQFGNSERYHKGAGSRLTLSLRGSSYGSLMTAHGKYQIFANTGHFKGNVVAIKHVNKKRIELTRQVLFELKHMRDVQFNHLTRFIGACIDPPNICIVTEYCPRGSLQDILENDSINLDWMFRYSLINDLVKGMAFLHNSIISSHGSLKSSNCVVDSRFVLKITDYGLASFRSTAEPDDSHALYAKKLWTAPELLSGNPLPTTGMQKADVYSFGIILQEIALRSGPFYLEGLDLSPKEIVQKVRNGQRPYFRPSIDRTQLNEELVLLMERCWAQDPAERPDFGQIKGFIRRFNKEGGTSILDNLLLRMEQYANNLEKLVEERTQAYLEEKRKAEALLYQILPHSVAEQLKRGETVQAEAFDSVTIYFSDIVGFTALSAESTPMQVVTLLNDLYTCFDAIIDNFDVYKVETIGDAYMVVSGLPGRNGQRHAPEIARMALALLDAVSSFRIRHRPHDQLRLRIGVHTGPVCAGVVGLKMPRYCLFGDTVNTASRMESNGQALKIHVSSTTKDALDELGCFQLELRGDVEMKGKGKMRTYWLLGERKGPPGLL
Assay: cell-based or functional assay
Numbered stars: 1 amine (or outer) side, 2 acyl side, 3 side chain; on linkers, the order of the positions; unused ones are H or OH. Square brackets hold non-standard residues; d marks the D form. Ends that are not written are not given here. * marks the point of attachment. Eal = rac-imidazolidine-2-carboxylic acid, O=C(C1N([*:1])CCN1[*:3])[*:2]; 4703 = 3-(4-bromo-phenyl)-propionic acid, O=C(CCc1ccc(Br)cc1)*; Pro(trans-4-NH2) = O=C([C@@H]1C[C@@H](N[*:3])CN1[*:1])[*:2]; Sni = (S)-nipecotic acid, O=C([C@H]1CCCN([*:1])C1)[*:2]; dDap(Me2) = CN(C)C[C@@H](N)C(=O)O; Hyp = O=C(O)[C@@H]1C[C@@H](O)CN1; NMeL = CN[C@@H](CC(C)C)C(=O)O; AR‑201‑73 = not defined here; Chg = N[C@H](C(=O)O)C1CCCCC1; NMeK = CN[C@@H](CCCCN)C(=O)O; Tle = CC(C)(C)[C@H](N)C(=O)O; orn(Me2) = not defined here; Octanoyl = CCCCCCCC(=O)*; Thz = O=C(O)[C@@H]1CSCN1; dDap = NC[C@@H](N)C(=O)O; 5163 = not defined here; 559 = not defined here; Hexanoyl = CCCCCC(=O)*; Oct = not defined here; ala = not defined here; Occ = octanoic acid

Consider the following illustrative entries.
[Occ][Sni]FGL[Pro(trans-4-NH2)][NMeL]DPI-NH2 [JAL-1560] = ≤ 5 µM
XAAFGLKVDRI (not fully specified (residue 1, C-terminus); printed as Occ-ala-ala-Phe-Gly-Leu-Lys-Val-Asp-Arg-Ile-NH2) [JAL-0771] = ≤ 15 µM
Octanoyl-[dA]F[dR]L[Hyp][Thz]DRI-NH2 [JAL-1395] = ≤ 15 µM

Record EC50 group, cGMP in GTM-3 cells per entry; entries follow.
1. XXFGLKLDRI (HELM PEPTIDE1{[CCCCCC(=O)[*:2]].[O=C(C1CCCN([*:1])C1)[*:2]].F.G.L.K.L.D.R.I.[am]}$$$$V2.0; SMILES CCCCCC(=O)N1CCCC(C(=O)N[C@@H](Cc2ccccc2)C(=O)NCC(=O)N[C@@H](CC(C)C)C(=O)N[C@@H](CCCCN)C(=O)N[C@@H](CC(C)C)C(=O)N[C@@H](CC(=O)O)C(=O)N[C@@H](CCCNC(=N)N)C(=O)N[C@H](C(N)=O)[C@@H](C)CC)C1) [JAL-0654]
2. Octanoyl-[Sni]F[dDap(Me2)]L[Hyp][NMeL]VRI-NH2 [JAL-1400]
3. [Oct][Sni]F[dL]L[Pro(trans-4-NH2)][NMeL]DRI-NH2 (reading uncertain; also: printed as Oct-Sni-Phe-leu-Leu-Tap-Nml-Asp-Arg-Ile-NH2) [JAL-1326]
4. Octanoyl-AFLL[Hyp][NMeL][Chg]RI-NH2 (also: lower-case ala, leu: meaning not given here) [JAL-1421]
5. Octanoyl-AAFGL[NMeK]LDRI-NH2 (not fully specified (some residues); printed as Occ-ala-ala-Phe-Gly-Leu-Nmk-Leu-Asp-Arg-Ile-) [JAL-0782]
6. Octanoyl-AAFGLKLDR[559] (not fully specified (some residues); printed as Occ-ala-ala-Phe-Gly-Leu-Lys-Leu-Asp-Arg-559; reading uncertain) [JAL-0791]

Response given:
["≤ 15 µM", "≤ 15 µM", "≤ 1 µM", "≤ 15 µM", "≤ 15 µM", "≤ 15 µM"]

Record EC50 group, cGMP in GTM-3 cells per entry; entries follow.
1. Octanoyl-AFRL[Hyp][Tle]DRI-NH2 (not fully specified (some residues); printed as Occ-ala-Phe-arg-Leu-Hyp-Tbg-Asp-Arg-Ile-NH2) [JAL-1226]
2. Octanoyl-[dA]FGL[Eal][NMeL]DRI-NH2 [JAL-1282]
3. [Occ][Sni]F[orn(Me2)]L[Pro(trans-4-NH2)][NMeL]DRI-NH2 (reading uncertain; also: printed as Occ-Sni-Phe-orn(Me2)-Leu-Tap-Nml-Asp-Arg-Ile-NH2) [JAL-1936]
4. Hexanoyl-P[dA]FGLKLDRI-NH2 [JAL-0634]
5. 4703-[Sni]F[dL]L[Hyp][NMeL]DRI-NH2 [JAL-1612]

Response given:
1: ≤ 15 µM; 2: ≤ 15 µM; 3: ≤ 1 µM; 4: ≤ 15 µM; 5: ≤ 5 µM

Record EC50 group, cGMP in GTM-3 cells per entry; entries follow.
1. [AR‑201‑73]F[dR]L[Hyp][NMeL]DRI-NH2 (reading uncertain; also: printed as (AR-201-73)-Phe-arg-Leu-Hyp-Nml-Asp-Arg-Ile-NH2) [JAL-1379]
2. Octanoyl-[ala][ala]FGLKLDR[5163] (reading uncertain; also: printed as Occ-ala-ala-Phe-Gly-Leu-Lys-Leu-Asp-Arg-5163) [JAL-0833]
3. Octanoyl-[dA]F[dK]LP[NMeL]DRI-NH2 [JAL-1065]
4. Octanoyl-[dA]F[dDap](Me2)L[Pro(trans-4-NH2)][NMeL]DRI-NH2 [JAL-1347]

Response given:
1. ≤ 5 µM
2. ≤ 15 µM
3. ≤ 5 µM
4. ≤ 5 µM
